target_under_test: HIV-1 protease (Human immunodeficiency virus type 1 group M subtype B)
experiment_description: biochemical
particulars: read-out: HIV-1 Protease % Inhib, dose 3.300 uM
// inhibition at 3.3 µM lookup, one value per entry
The answer is to be given in %; state only the numeric part.

Look over these answered cases.
> print(dat)
                                   compound                         target.under.test  measured.number
1  COCCOCCOCCOc1ccc(S(=O)(=O)Nc2cccc(C(c3c(O)c4c(oc3=O)CCCCCC4)C3CC3)c2)cc1 (stereo not shown)  HIV-1 protease (Human immunodeficiency virus type 1 group M subtype B)              124
2  O=c1oc2c(c(O)c1C(c1cccc(NS(=O)(=O)c3ccc(Cl)c(Cl)c3Cl)c1)C1CC1)CCCCCC2 (stereo not shown)  HIV-1 protease (Human immunodeficiency virus type 1 group M subtype B)             90.9
3  CCCC(c1ccccc1)c1c(O)c2c(oc1=O)CCCCCC2 (stereo not shown)  HIV-1 protease (Human immunodeficiency virus type 1 group M subtype B)             97.1

Attention now turns to another entry.
Prompt: Data request, read-out inhibition at 3.3 µM, for CCCC(c1cccc(NS(=O)(=O)c2cccnc2)c1)c1c(O)c2c(oc1=O)CCCCCC2 (stereo not shown)
Completion: 104

###

target_under_test: HIV-1 protease (Human immunodeficiency virus type 1 group M subtype B)
experiment_description: biochemical
particulars: dose 0.370 uM; read-out: HIV-1 Protease % Inhib
// inhibition at 0.37 µM lookup, one value per entry
The answer is to be given in %; state only the numeric part.

> print(dat)
                                   compound      quantity.measured  result.unit  measured.number
1  O=C(Nc1cccc(C(c2c(O)c3c(oc2=O)CCCCCC3)C2CC2)c1)c1ccc(Cl)cc1 (stereo not shown) [Example 206]  inhibition at 0.37 µM            %             17.9
2  O=c1oc2c(c(O)c1C(c1cccc(NS(=O)(=O)CCCN3CCOCC3)c1)C1CC1)CCCCCC2 (stereo not shown) [Example 365B (Second Title Compound)]  inhibition at 0.37 µM            %             68.2
3  O=c1oc2c(c(O)c1C(c1ccccc1)C1CC1)CCCCC2CC1CCOC1 (stereo not shown) [Example 191]  inhibition at 0.37 µM            %             16.9
4  COc1cccc(OC)c1S(=O)(=O)Nc1cccc(C(c2c(O)c3c(oc2=O)CCCCCC3)C2CC2)c1 (stereo not shown) [Example 334]  inhibition at 0.37 µM            %             13.6
5  CCCC(c1cccc(NC(=O)OCc2ccccc2)c1)c1c(O)c2c(oc1=O)CCCCCC2 (stereo not shown) [Example 375]  inhibition at 0.37 µM            %             10.2

Attention now turns to another entry.
Prompt: Data request, read-out inhibition at 0.37 µM, for CN(C)c1cccc2c(S(=O)(=O)Nc3cccc(C(c4c(O)c5c(oc4=O)CCCCCC5)C4CC4)c3)cccc12 (stereo not shown) [Example 283]
Completion: 10.6

###

target_under_test: UniProt:P04585
experiment_description: biochemical
particulars: read-out: HIV-1 Protease % Inhib, dose 100.000 uM
// inhibition at 100 µM lookup, one value per entry
The answer is to be given in %; state only the numeric part.

Look over these answered cases.
> print(dat)
                                   compound  measured.number
1  CCC(c1ccccc1)c1c(O)c2c(oc1=O)CCCCC2 (stereo not drawn) [Example 110]             99.9
2  CCC(c1cccc(NC(=O)CN)c1)c1c(O)c2ccccc2oc1=O (stereo not drawn) [Example 46]              116
3  COc1ccc2c(O)c(C(C3CC3)C3CC3)c(=O)oc2c1 [Example 80]              102
4  CCC(c1ccccc1)c1c(O)c2c(oc1=O)CCCC2 (stereo not drawn) [Example 109]               92
5  CCCCC(=O)Nc1cccc(C(CC)c2c(O)c3ccccc3oc2=O)c1 (stereo not drawn) [Example 44]             55.6
6  COc1ccc2c(O)c(C(c3cccc(NC(=O)OCc4ccccc4)c3)C3CC3)c(=O)oc2c1 (stereo not drawn) [Example 166]              100

Prompt: Record CCC(c1ccccc1)c1c(O)c2cc(F)ccc2oc1=O (stereo not drawn) [Example 87] : what is its inhibition at 100 µM with UniProt:P04585?
Completion: 79

Prompt: Record CCC(c1cccc(NS(=O)(=O)CCN2C(=O)c3ccccc3C2=O)c1)c1c(O)c2ccccc2oc1=O (stereo not drawn) [Example 139] : what is its inhibition at 100 µM with UniProt:P04585?
Completion: 99.2

Prompt: Record CC(O)CC(c1ccccc1)c1c(O)c2ccccc2oc1=O (stereo not drawn) [Example 8] : what is its inhibition at 100 µM with UniProt:P04585?
Completion: 93.3
